Let's go through some recorded MIC values for Serr. Mar. IMM 16 together.
One number for each entry, in µg/mL.

Please go through the list and note MIC for each compound.
1. CC(=O)OCC1=C(C(=O)O)N2C(=O)C(NC(=O)[C@H](NC(=O)c3ccc(-c4ccc(NC(=O)C5CCCN5C(C)=O)cc4)[nH]c3=O)c3ccccc3)C2SC1 (mixture of isomers) [Example 17]
2. CC(=O)N1CC(O)C[C@H]1C(=O)Nc1ccc(-c2ccc(C(=O)N[C@@H](C(=O)NC3C(=O)N4C(C(=O)O)=C(CSc5nnnn5CC(=O)O)CSC34)c3ccccc3)c(=O)[nH]2)cc1 (some centres unmarked) [Example 30]
3. CC(=O)N[C@@H](C)C(=O)Nc1ccc(-c2ccc(C(=O)N[C@@H](C(=O)NC3C(=O)N4C(C(=O)O)=C(CSc5nnnn5C)CSC34)c3ccccc3)c(=O)[nH]2)cc1 (some centres unmarked) [Example 20]

Reply |
1: 50; 2: 12.5; 3: 25

###

Task for the reader: assign each of the following molecules its reported MIC.
Tested on: Pseudomonas BRK 12-4-4
ASSAY_SUMMARY: In vitro minimal inhibitory concentration, Pseudomonas BRK 12-4-4
Assay type: cell-based
ASSAY_CONDITIONS: BRK1244
Give bare numbers, in µg/mL.

Cn1nnnc1SCC1=C(C(=O)O)N2C(=O)C(NC(=O)[C@H](NC(=O)c3ccc(-c4ccc(NC(=O)[C@@H]5CCC(=O)N5)cc4)[nH]c3=O)c3ccccc3)C2SC1 (some centres unmarked) [Example 7] | 6.3
CC(=O)OCC1=C(C(=O)O)N2C(=O)C(NC(=O)[C@H](NC(=O)c3ccc(-c4ccc(NC(=O)[C@@H]5CCCN5C(C)=O)cc4)[nH]c3=O)c3ccccc3)C2SC1 (some centres unmarked) [Example 12] | 12.5
CC(=O)N[C@H](C)C(=O)Nc1ccc(-c2ccc(C(=O)N[C@@H](C(=O)NC3C(=O)N4C(C(=O)O)=C(COC(C)=O)CSC34)c3ccccc3)c(=O)[nH]2)cc1 (some centres unmarked) [Example 4] | 12.5
CC(=O)N[C@H](C)C(=O)Nc1ccc(-c2ccc(C(=O)N[C@@H](C(=O)NC3C(=O)N4C(C(=O)O)=C(CSc5nnnn5CCC(=O)O)CSC34)c3ccccc3)c(=O)[nH]2)cc1 (some centres unmarked) [Example 41] | 12.5
CC(=O)NC(C)C(=O)Nc1ccc(-c2ccc(C(=O)N[C@@H](C(=O)NC3C(=O)N4C(C(=O)O)=C(CSc5nnnn5C)CSC34)c3ccccc3)c(=O)[nH]2)cc1 (mixture of isomers) [Example 18] | 12.5

Dear reader, for each entry below, please note its MIC.
1. CC(=O)N1CC(O)C[C@H]1C(=O)Nc1ccc(-c2ccc(C(=O)N[C@@H](C(=O)NC3C(=O)N4C(C(=O)O)=C(CSc5nnnn5CC(=O)O)CSC34)c3ccccc3)c(=O)[nH]2)cc1 (some centres unmarked) [Example 30]
2. CC(=O)N[C@H](C)C(=O)Nc1ccc(-c2ccc(C(=O)N[C@@H](C(=O)NC3C(=O)N4C(C(=O)O)=C(CSc5nnnn5CC(=O)O)CSC34)c3ccccc3)c(=O)[nH]2)cc1 (some centres unmarked) [Example 1]
3. CC(=O)N[C@H](C)C(=O)Nc1ccc(-c2ccc(C(=O)N[C@@H](C(=O)NC3C(=O)N4C(C(=O)O)=C(COC(N)=O)CSC34)c3ccccc3)c(=O)[nH]2)cc1 (some centres unmarked) [Example 24]
4. CC(=O)N[C@H](C)C(=O)Nc1ccc(-c2ccc(C(=O)N[C@@H](C(=O)NC3C(=O)N4C(C(=O)O)=C(CSc5nnnn5C)CSC34)c3ccccc3)c(=O)[nH]2)cc1 (some centres unmarked) [Example 19]
5. CC(=O)N[C@@H](CCC(N)=O)C(=O)Nc1ccc(-c2ccc(C(=O)N[C@@H](C(=O)NC3C(=O)N4C(C(=O)O)=C(COC(C)=O)CSC34)c3ccccc3)c(=O)[nH]2)cc1 (some centres unmarked) [Example 14]
6. CC(=O)N[C@@H](CCC(N)=O)C(=O)Nc1ccc(-c2ccc(C(=O)N[C@@H](C(=O)NC3C(=O)N4C(C(=O)O)=C(CSc5nnnn5CS(=O)(=O)O)CSC34)c3ccccc3)c(=O)[nH]2)cc1 (some centres unmarked) [Example 42]

Reply |
12.5
12.5
12.5
12.5
6.3
6.3

Batch lookup, MIC per entry.
1. CC(=O)NC(C)C(=O)Nc1ccc(-c2ccc(C(=O)N[C@@H](C(=O)NC3C(=O)N4C(C(=O)O)=C(CSc5nnc(C)s5)CSC34)c3ccccc3)c(=O)[nH]2)cc1 (mixture of isomers) [Example 22]
2. CC(=O)OCC1=C(C(=O)O)N2C(=O)C(NC(=O)[C@H](NC(=O)c3ccc(-c4ccc(NC(=O)[C@@H]5CCC(=O)N5)cc4)[nH]c3=O)c3ccccc3)C2SC1 (some centres unmarked) [Example 6]

Reply |
1: 12.5; 2: 12.5

Hi, could you look up MIC for each item in my list?
1. CC(=O)OCC1=C(C(=O)O)N2C(=O)C(NC(=O)[C@H](NC(=O)c3ccc(-c4ccc(NC(=O)[C@@H]5CCC(=O)N5C)cc4)[nH]c3=O)c3ccccc3)C2SC1 (some centres unmarked) [Example 34]
2. CC(=O)N[C@H](C)C(=O)Nc1ccc(-c2ccc(C(=O)N[C@@H](C(=O)NC3C(=O)N4C(C(=O)O)=C(COC(C)=O)CSC34)c3ccc(O)cc3)c(=O)[nH]2)cc1 (some centres unmarked) [Example 8]
3. CC(=O)N[C@H](C)C(=O)Nc1ccc(-c2ccc(C(=O)N[C@@H](C(=O)NC3C(=O)N4C(C(=O)O)=C(CSc5nnnn5C)CSC34)c3ccc(O)cc3)c(=O)[nH]2)cc1 (some centres unmarked) [Example 25]
4. CC(=O)NC(C)C(=O)Nc1ccc(-c2ccc(C(=O)N[C@@H](C(=O)NC3C(=O)N4C(C(=O)O)=C(COC(C)=O)CSC34)c3ccccc3)c(=O)[nH]2)cc1 (mixture of isomers) [Example 3]
5. CC(=O)N[C@H](CC(N)=O)C(=O)Nc1ccc(-c2ccc(C(=O)N[C@@H](C(=O)NC3C(=O)N4C(C(=O)O)=C(CSc5nnnn5C)CSC34)c3ccccc3)c(=O)[nH]2)cc1 (some centres unmarked) [Example 23]
6. CC(=O)OCC1=C(C(=O)O)N2C(=O)C(NC(=O)[C@H](NC(=O)c3ccc(-c4ccc(NC(=O)[C@@H]5CC(O)CN5C(C)=O)cc4)[nH]c3=O)c3ccccc3)C2SC1 (some centres unmarked) [Example 31]

Reply |
1: 12.5; 2: 6.3; 3: 3.1; 4: 12.5; 5: 6.3; 6: 12.5

Sample CC(=O)NC(C)C(=O)Nc1ccc(-c2ccc(C(=O)N[C@@H](C(=O)NC3C(=O)N4C(C(=O)O)=C(COC(N)=O)CSC34)c3ccccc3)c(=O)[nH]2)cc1 (mixture of isomers) [Example 10] ; MIC observed: 12.5

###

Tested on: Entero Cloac. IM 11
Provide the recorded MIC for the entries that follow.
One number for each entry, in µg/mL.

Solved cases (2 shown):
CC(=O)N[C@H](C)C(=O)Nc1ccc(-c2ccc(C(=O)N[C@@H](C(=O)NC3C(=O)N4C(C(=O)O)=C(COC(C)=O)CSC34)c3ccccc3)c(=O)[nH]2)cc1 (stereo partly shown) | 12.5
CC(=O)N[C@H](C)C(=O)Nc1ccc(-c2ccc(C(=O)N[C@@H](C(=O)NC3C(=O)N4C(C(=O)O)=C(COC(C)=O)CSC34)c3ccc(O)cc3)c(=O)[nH]2)cc1 (stereo partly shown) | 12.5

Count: 2. Required value per item: MIC.
1. O=C(O)Cn1nnnc1SCC1=C(C(=O)O)N2C(=O)C(NC(=O)[C@H](NC(=O)c3ccc(-c4ccc(NC(=O)[C@@H]5CCC(=O)N5)cc4)[nH]c3=O)c3ccccc3)C2SC1 (stereo partly shown)
2. CC(=O)NC(C)C(=O)Nc1ccc(-c2ccc(C(=O)N[C@@H](C(=O)NC3C(=O)N4C(C(=O)O)=C(COC(C)=O)CSC34)c3ccccc3)c(=O)[nH]2)cc1 (mixture of isomers)

Reply |
3.1
25

Batch lookup, MIC per entry.
1. CC(=O)N[C@H](C)C(=O)Nc1ccc(-c2ccc(C(=O)N[C@@H](C(=O)NC3C(=O)N4C(C(=O)O)=C(CSc5nnnn5CCC(=O)O)CSC34)c3ccccc3)c(=O)[nH]2)cc1 (stereo partly shown)
2. CC(=O)NC(C)C(=O)Nc1ccc(-c2ccc(C(=O)N[C@@H](C(=O)NC3C(=O)N4C(C(=O)O)=C(CSc5nnnn5C)CSC34)c3ccccc3)c(=O)[nH]2)cc1 (mixture of isomers)
3. CC(=O)N[C@H](C)C(=O)Nc1ccc(-c2ccc(C(=O)N[C@@H](C(=O)NC3C(=O)N4C(C(=O)O)=C(COC(N)=O)CSC34)c3ccccc3)c(=O)[nH]2)cc1 (stereo partly shown)
4. CC(=O)OCC1=C(C(=O)O)N2C(=O)C(NC(=O)[C@H](NC(=O)c3ccc(-c4ccc(NC(=O)C5CCCN5C(C)=O)cc4)[nH]c3=O)c3ccccc3)C2SC1 (mixture of isomers)
5. CC(=O)N[C@H](CC(N)=O)C(=O)Nc1ccc(-c2ccc(C(=O)N[C@@H](C(=O)NC3C(=O)N4C(C(=O)O)=C(COC(C)=O)CSC34)c3ccccc3)c(=O)[nH]2)cc1 (stereo partly shown)
6. CC(=O)N[C@H](C)C(=O)Nc1ccc(-c2ccc(C(=O)N[C@@H](C(=O)NC3C(=O)N4C(C(=O)O)=C(CSc5nnnn5CC(=O)O)CSC34)c3ccccc3)c(=O)[nH]2)cc1 (stereo partly shown)

Reply |
6.3
6.3
25
25
12.5
3.1

For the 5 compounds below, give their MIC values.
1. CC(=O)NC(C)(C)C(=O)Nc1ccc(-c2ccc(C(=O)N[C@@H](C(=O)NC3C(=O)N4C(C(=O)O)=C(COC(C)=O)CSC34)c3ccccc3)c(=O)[nH]2)cc1 (stereo partly shown)
2. CC(=O)NCCCCC(NC(C)=O)C(=O)Nc1ccc(-c2ccc(C(=O)N[C@@H](C(=O)NC3C(=O)N4C(C(=O)O)=C(COC(C)=O)CSC34)c3ccccc3)c(=O)[nH]2)cc1 (mixture of isomers)
3. CC(=O)N[C@@H](CCC(N)=O)C(=O)Nc1ccc(-c2ccc(C(=O)N[C@@H](C(=O)NC3C(=O)N4C(C(=O)O)=C(CSc5nnnn5C)CSC34)c3ccccc3)c(=O)[nH]2)cc1 (stereo partly shown)
4. CC(=O)OCC1=C(C(=O)O)N2C(=O)C(NC(=O)[C@H](NC(=O)c3ccc(-c4ccc(NC(=O)[C@@H]5CCC(=O)N5)cc4)[nH]c3=O)c3ccccc3)C2SC1 (stereo partly shown)
5. CC(=O)NC(C)C(=O)Nc1ccc(-c2ccc(C(=O)N[C@@H](C(=O)NC3C(=O)N4C(C(=O)O)=C(CSc5nnc(C)s5)CSC34)c3ccccc3)c(=O)[nH]2)cc1 (mixture of isomers)

Reply |
1: 12.5; 2: 12.5; 3: 1.6; 4: 12.5; 5: 12.5
